B1: HDV Ribozyme (parent)
chain: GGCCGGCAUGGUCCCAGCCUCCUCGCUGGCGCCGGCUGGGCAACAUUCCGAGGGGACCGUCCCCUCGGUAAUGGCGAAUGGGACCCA

# Variants of: B1
# experiment-description: self-cleavage, relative activity (ratio to wild type); higher = more cleavage; co-transcriptional

| sequence-content | self-cleavage |
| --- | --- |
| GGCCGGCAUGGUCCCAGCCUCCUCGCUGGCGCCGGCUGGGCAACAUUCCGAGGGGACCUUCCCCUCGGUAAUGGCGAGUGGGACCCA [G59U A78G] | 0.904 |
| GUCCGGCAUGGUCCCAGCCUCCUCGCUGGCGCCGGCUGGGCAACAUUCCGAGGGGACCGUCCCCUCGGUAAUGGCGAGUGGGACCCA [G2U A78G] | 0.089 |
| GGCCGGCAUGGUCCCAGCCUCCUCGCUGGCGCCGGCUGAGCAUCAUUCCGAGGGGACCGUCCCCUCGGUAAUGGCGAAUGGGACCCA [G39A A43U] | 0.0241 |
| GGCCGGCAUGGUCCCAGCCUCCUCGCUGGCGCCGGCUGGGCAACUUUCCGAGGGGACCGUCCCCUCGGUAAUGGCGAAUGGCACCCA [A45U G82C] | 0.0898 |
| GGCCGGCAUGGUGCCAGCCUCCUCGCUGGCGCCGGCUGGGCAACAUUCCGAGGGGACCGUCCCCUCGGGAAUGGCGAAUGGGACCCA [C13G U69G] | 0.111 |
| GGCCGGCAUGGUCCCAGCCUCCUCGCUGGCGCCGGCUGGGAAACAUUCCGAGGGGACGGUCCCCUCGGUAAUGGCGAAUGGGACCCA [C41A C58G] | 0.935 |
| GGCCGGCAUGGUCCCAGCCUCCUCGCGGGCGCCGGCUGGGCAACAUUCCGAGGGGACCGUCCCCUCGGUAUUGGCGAAUGGGACCCA [U27G A71U] | 0.598 |
| GGCAGGCAUGGUCCCAGCCUCCUCUCUGGCGCCGGCUGGGCAACAUUCCGAGGGGACCGUCCCCUCGGUAAUGGCGAAUGGGACCCA [C4A G25U] | 0.0252 |
| GGCCGGCAUGGUCCCAGCCCCCUCGCUGGCGCCGGCUGGGCAACAUUCCGAGGGGACCGUCCCCUCGUUAAUGGCGAAUGGGACCCA [U20C G68U] | 0.145 |
| GGCCGGCAUGGUCCCAGCCUCCUCGCUGGCGCCGGCUGGGCAACAUUCCGAGGGGAACGUCCCCUCGGUAAUGGCGAAUGGGACCGA [C57A C86G] | 0.89 |
| GGCCGGCAUGGUCCCAGGCUCCUCGCUGGCGCCGGCUGGGCAACAUUCCGAGGCGACCGUCCCCUCGGUAAUGGCGAAUGGGACCCA [C18G G54C] | 0.0475 |
| GGCCGGCAUGGUCCCAGCCUCCUCGCUGCCGCCGGAUGGGCAACAUUCCGAGGGGACCGUCCCCUCGGUAAUGGCGAAUGGGACCCA [G29C C36A] | 0.0297 |
| GGCCGGCAUGGUCCCAGCCUCCUCGCUGGCGCCGGCUGUGCAACAUUCCGAGGGGACCGUCCCCUCGGUAAUGGCGAAUGGCACCCA [G39U G82C] | 0.168 |
| GGCCGGCAUGGUCCCAGCCGCCUCGCUGGCGCCGGCUGGGCAACAUUCCGAGGGGACCGUCCCCUCGGGAAUGGCGAAUGGGACCCA [U20G U69G] | 0.0831 |
| GGCCGGCAUUGUCCCAGCCUCCUCGCUGGCGCCGGCUUGGCAACAUUCCGAGGGGACCGUCCCCUCGGUAAUGGCGAAUGGGACCCA [G10U G38U] | 0.0625 |
| GGCCGGCAUGGUCCCAGCCUCCUCGCUGGCGCCGGCUGGGCAACAUUCCGAGGGGACCGUCCCCUUGGUAAUGGCGAAUGGGGCCCA [C66U A83G] | 0.643 |
| GGCCGGCAUGGUCCCGGCCUCCUCGCUGGCGCCGGCUGGGCAACAUUCCGAGGGGACCGUCCCCUCGGUAAUGGCGCAUGGGACCCA [A16G A77C] | 0 |
| GGCCGGCAUGGUCCCUGCCUCCUCGCUAGCGCCGGCUGGGCAACAUUCCGAGGGGACCGUCCCCUCGGUAAUGGCGAAUGGGACCCA [A16U G28A] | 0.0475 |
| GGCCGGCAUGGUCCCAGCCUCCUCGCUGGCGCCGGCUGGGCAACAUUCCGAGGGGACCGUCCCCUCGGUAAUGGCCAAUGGGACCCA [G76C] | 1 |
| GGCCGGCAUGGUCCCAGGCUCCUCGCUGGCGCCGGCUGGGCAACAUUCCGAGGGGACCGUCCCCUCGGUAAUGGCGAAUGGGUCCCA [C18G A83U] | 0.101 |
| GGCCGGCGGGGUCCCAGCCUCCUCGCUGGCGCCGGCUGGGCAACAUUCCGAGGGGACCGUCCCCUCGGUAAUGGCGAAUGGGACCCA [A8G U9G] | 0.831 |
| GGCCGGCAUGGUCCCAGCCUCCUCGCUGGCACCGGCUGGGCAACAUUCCGAGGGGACCGUCCCCUCGGUAAUGCCGAAUGGGACCCA [G31A G74C] | 0.182 |

Every entry's value here was drawn from the RNAGym collection of RNA variant scans (doi:10.7554/elife.80360).
